experiment: Selectivity index, ratio of IC50 for african green monkey Vero cells to MIC for methicillin- sensitive Staphylococcus aureus 8325 ATCC 35556; type: functional
Please provide measured Ratio for the entries that follow.
Answers are plain numbers.

Guide cases for Ratio, answers given:
Molecule	Ratio
C/C(O)=C1\C(=O)[C@H](CC(C)C)N(CC2=CCC3CC2C3(C)C)C1=O (some centres undefined)	22.1
C/C(O)=C1\C(=O)[C@H](Cc2ccccc2)N(Cc2ccccc2)C1=O	6.1
CCC(C)[C@H]1C(=O)/C(=C(\C)O)C(=O)N1Cc1ccccc1 (some centres undefined)	4.2

Could you now consider this next molecule?
Asked: Find the recorded Ratio belonging to C/C(O)=C1\C(=O)[C@@H](CC(C)C)N(Cc2ccc(F)cc2)C1=O and report it.
Given back: 2.8

====

Please provide measured Ratio for the entries that follow.
assay: Selectivity index, ratio of IC50 for african green monkey Vero cells to MIC for methicillin- sensitive Staphylococcus aureus 8325 ATCC 35556; type: functional

Guide cases for Ratio, answers given:
Compound	Test result
CC(C)=CCCC(C)CCN1C(=O)/C(=C(/C)O)C(=O)[C@@H]1CC(C)C (stereo not given in full)	18.3
CCCCCCCCCCN1C(=O)/C(=C(/C)O)C(=O)[C@@H]1CC(C)C	36.8
C/C(O)=C1\C(=O)[C@H](CC(C)C)N(Cc2ccc(F)cc2)C1=O	2.2
COc1cccc(CN2C(=O)/C(=C(/C)O)C(=O)[C@@H]2CC(C)C)c1	3.2
C/C(O)=C1\C(=O)[C@H](CC(C)C)N(Cc2ccc(-c3ccccc3)cc2)C1=O	98.5
CCCCCCCCCCN1C(=O)/C(=C(/C)O)C(=O)[C@@H]1Cc1ccccc1	105.5

Below are some compounds; for each one, tell me its Ratio.
1. C/C(O)=C1\C(=O)[C@@H](Cc2ccccc2)N(Cc2ccccc2)C1=O
2. CCCCCCCCCCN1C(=O)/C(=C(/C)O)C(=O)[C@@H]1C(C)C
3. CCCCN1C(=O)/C(=C(/C)O)C(=O)[C@@H]1CC(C)C

Given back:
1: 3.2; 2: 8.8; 3: 81.4

Asked: Find the recorded Ratio belonging to CCCCCCCCCCN1C(=O)/C(=C(/C)O)C(=O)[C@H]1CC(C)C and report it.
Given back: 15.8

====

Please provide measured MIC for the entries that follow.
test system: Streptococcus pneumoniae; assay: Antibacterial activity against Streptococcus pneumoniae DAW30 by micro-broth dilution method; assay type: functional
Give bare numbers, in µg/mL.

Below are some compounds; for each one, tell me its MIC.
1. C/C(O)=C1\C(=O)[C@@H](Cc2ccccc2)N(Cc2ccccc2)C1=O
2. CCCCCCCCCCN1C(=O)/C(=C(/C)O)C(=O)[C@@H]1Cc1ccccc1
3. COc1cccc(CN2C(=O)/C(=C(/C)O)C(=O)[C@@H]2CC(C)C)c1
4. CCCCCCCCCCN1C(=O)/C(=C(/C)O)C(=O)[C@@H]1CC(C)C

Given back:
1. 50
2. 12.5
3. 50
4. 6.25

====

system: Staphylococcus aureus; test: Antibacterial activity against methicillin-resistant Staphylococcus aureus ATCC 33591 by micro-broth dilution method; assay type: functional
Please provide measured MIC for the entries that follow.

Molecule	MIC
CCCCCCCCCCN1C(=O)/C(=C(/C)O)C(=O)[C@H]1CC(C)C	0.8 µg/mL
COc1cccc(CN2C(=O)/C(=C(/C)O)C(=O)[C@@H]2CC(C)C)c1	25 µg/mL
C/C(O)=C1\C(=O)[C@H](CC(C)C)N(CC2=CCC3CC2C3(C)C)C1=O (stereo not given in full)	1.6 µg/mL

Below are some molecules; for each one, tell me its MIC.
1. C/C(O)=C1\C(=O)[C@@H](Cc2ccccc2)N(Cc2ccccc2)C1=O
2. C/C(O)=C1\C(=O)[C@H](Cc2ccccc2)N(Cc2ccccc2)C1=O

Given back:
1: 25 µg/mL; 2: 25 µg/mL
